System: PPARg:RXRa IVT, anti-PPARg (NR concentration 270 nM, RXRa partner concentration 90 nM)
measurement description: PBM binding z-score (relative to random genomic background probes); higher = stronger binding; sequences stand for … in GC…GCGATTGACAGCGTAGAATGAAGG
property: PBM binding z-score
The response must contain the number and no unit.

[[record]]
seq = "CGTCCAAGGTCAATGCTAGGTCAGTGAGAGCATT"
subject_of_test = "PPARg:RXRa IVT, anti-PPARg (NR concentration 270 nM, RXRa partner concentration 90 nM)"
property = "PBM binding z-score"
val = 4.04

[[record]]
seq = "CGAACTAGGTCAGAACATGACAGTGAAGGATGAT"
subject_of_test = "PPARg:RXRa IVT, anti-PPARg (NR concentration 270 nM, RXRa partner concentration 90 nM)"
property = "PBM binding z-score"
val = 7.31

[[record]]
seq = "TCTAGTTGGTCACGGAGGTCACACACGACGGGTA"
subject_of_test = "PPARg:RXRa IVT, anti-PPARg (NR concentration 270 nM, RXRa partner concentration 90 nM)"
property = "PBM binding z-score"
val = 4.2


// switching to the query sequence
Exercise: Give recorded PBM binding z-score with PPARg:RXRa IVT, anti-PPARg (NR concentration 270 nM, RXRa partner concentration 90 nM) for the following sequence: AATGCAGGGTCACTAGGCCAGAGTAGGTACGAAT
Solution: 5.62

###

Test system: RARb:RXRa (NR concentration 270 nM, RXRa partner concentration 90 nM)
measurement description: PBM binding z-score (relative to random genomic background probes); higher = stronger binding; sequences stand for … in GC…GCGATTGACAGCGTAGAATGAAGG
Quick list: PBM binding z-score per entry.
Reply with the value as a number alone.

[[record]]
seq = "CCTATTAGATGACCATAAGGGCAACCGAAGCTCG"
property = "PBM binding z-score"
val = 1.4

[[record]]
seq = "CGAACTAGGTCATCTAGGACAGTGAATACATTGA"
property = "PBM binding z-score"
val = 3.92

[[record]]
seq = "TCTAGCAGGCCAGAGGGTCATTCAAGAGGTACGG"
property = "PBM binding z-score"
val = 2.17


Exercise: What value of measured PBM binding z-score is listed for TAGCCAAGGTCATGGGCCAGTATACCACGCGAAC ?
Solution: 5.36

Exercise: Next sequence up: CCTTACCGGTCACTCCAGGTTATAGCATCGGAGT
Solution: 2.9

Exercise: Also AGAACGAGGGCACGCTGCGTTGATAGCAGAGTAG ?
Solution: 2.52

Exercise: Now try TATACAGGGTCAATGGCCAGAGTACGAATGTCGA .
Solution: 4.05

Exercise: Subsequent entry: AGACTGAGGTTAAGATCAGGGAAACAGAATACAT
Solution: 1.7

###

Test system: VDR homodimer (NR concentration 270 nM)
measurement description: PBM binding z-score (relative to random genomic background probes); higher = stronger binding; sequences stand for … in GC…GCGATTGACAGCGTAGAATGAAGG
property: PBM binding z-score

[[record]]
seq = "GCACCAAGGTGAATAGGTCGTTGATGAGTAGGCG"
val = -0.0787

[[record]]
seq = "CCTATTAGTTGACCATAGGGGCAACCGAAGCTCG"
val = 0.581

[[record]]
seq = "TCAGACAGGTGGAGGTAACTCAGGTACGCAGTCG"
val = -0.21


Exercise: Please report the recorded PBM binding z-score for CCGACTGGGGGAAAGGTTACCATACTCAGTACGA .
Solution: 0.298

Exercise: Further, for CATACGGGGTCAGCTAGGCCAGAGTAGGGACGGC ?
Solution: 3.27

Exercise: And for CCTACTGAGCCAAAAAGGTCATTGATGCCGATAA ?
Solution: 2.73

Exercise: Note, next up: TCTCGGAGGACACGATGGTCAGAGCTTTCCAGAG
Solution: -0.307

Exercise: Also check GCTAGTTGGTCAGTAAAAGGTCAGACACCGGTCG
Solution: 0.607

Exercise: Could you do the same for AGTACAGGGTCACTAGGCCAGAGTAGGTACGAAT , please?
Solution: 2.39

Data provenance is the supplement of paper PMC6555819.
